# study.target: serum retinol binding protein (RBP) (Homo sapiens)
# Construct: Human RBP was purified from human serum; from tissue; host or cells: human serum
# measurement.description: Dissociation constant to serum retinol binding protein by fluorometric titration
# condition.description: fluorometric titration, 150 mM NaCl, 0.1 mM DTT, 25 mM HEPES; read-out: dissociation constant RBP
result.type: Kd
Include the unit after the number when you answer.

Recorded Kd (compound C=CC(C)=CC=CC(C)=CC=C1C(C)=CCCC1(C)C [AR, Anhydroretinol] ): 20 nM

###

# study.target: serum retinol binding protein (RBP) (Homo sapiens, UniProt P02753)
# Construct: Human RBP was purified from human serum; from tissue; host or cells: human serum
# measurement.description: Dissociation constant to serum retinol binding protein by fluorometric titration
# Protocol: Apo-protein (1-3 μM) was titrated with the appropriate all-trans-retinoid dissolved in ethanol and the titration was followed by measuring the increase in the fluorescence of the retinoids upon binding. Reaction mixtures included 150 mM NaCl, 0.1 mM DTT, and 25 mM HEPES; pH's were 7.0 and 7.4, respectively. […] Data analyses were performed as described by Cogan et al. (14). Human RBP was purified from human serum by means of a transthyretin column (15). […]
result.type: pKd
Keep it numeric: pKd is minus log10 of the concentration in mol/L.

The observed pKd for CC(C=CC=C(C)C(O)CO)=CC=C1C(C)=CCCC1(C)C (stereo not shown) [Compound 14-HRR, 14-hydroxy-4,14-retro-retinol] when tested with serum retinol binding protein (RBP) (Homo sapiens, UniProt P02753) stands at 6.92
